Just for reference, patent US20080026996A1 is where these values come from.

Target: T1, human PAC1 receptor (human, UniProt P41586 21-468)
T1 sequence (looked up): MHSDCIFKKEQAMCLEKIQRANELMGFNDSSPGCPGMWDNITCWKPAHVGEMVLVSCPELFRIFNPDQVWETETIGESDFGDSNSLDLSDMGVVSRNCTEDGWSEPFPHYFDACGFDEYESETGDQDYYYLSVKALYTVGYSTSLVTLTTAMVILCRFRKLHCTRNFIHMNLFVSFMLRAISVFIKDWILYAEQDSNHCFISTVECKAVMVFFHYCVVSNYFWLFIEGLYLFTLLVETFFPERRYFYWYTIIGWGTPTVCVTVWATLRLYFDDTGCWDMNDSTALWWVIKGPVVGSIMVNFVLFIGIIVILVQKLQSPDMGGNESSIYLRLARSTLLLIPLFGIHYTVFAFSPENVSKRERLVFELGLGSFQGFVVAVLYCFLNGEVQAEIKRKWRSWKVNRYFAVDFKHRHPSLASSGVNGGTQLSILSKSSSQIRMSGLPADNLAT
Test: cell-based or functional assay
Where no end group is shown, it is not given here.
Reported Endpoint: EC50 cAMP, DiscoveRx

Reference set (2 entries):
>>> result("HSDYVFTDNYTRLRKQVAAKKYLQSIKNKRYGGPSSGAPPPS [P51]")
"> 1000 nM"
>>> result("HSDFVFTDNYTRLRKQVAAKKYLQSIKNKRYGGPSSGAPPPS [P52]")
"> 1000 nM"

Consider the binder HSDLVFTDNYTRLRKQVAAKKYLQSIKNKRYGGPSSGAPPPS (not fully specified) [P55] and give its measured EC50 cAMP, DiscoveRx.
> 1000 nM
